The measurements presented in this section are drawn from patent US8841413B2.

Experiment: Stability against liver microsomes
Format: in vitro ADME, human
Details: 2 μM, 37° C., 24 h
Experimental: Reactions were terminated by the addition of TFA/H2O (15 mL, 10% (v/v)). […] The column was equilibrated with TFA/H2O, at a flow rate of 1 mL/min. […] The absorbance was monitored at 206 nm using UV detector and peaks were collected manually prior to ESI-MS analysis.
Each entry below carries its reported % degradation in 24 h when incubated with liver microsomes.
readout-name: % degradation in 24 h when incubated with liver microsomes

| molecule | measured-value |
| --- | --- |
| CCc1cc(OC)ccc1-c1ccc(CC(NC(=O)[C@H](CC(=O)O)NC(=O)[C@H](CO)NC(=O)[C@@H](NC(=O)[C@H](Cc2ccccc2)NC(=O)[C@@H](NC(=O)CNC(=O)[C@H](CCC(N)=O)NC(=O)[C@H](CO)NC(=O)[C@@H](N)Cc2c[nH]cn2)[C@@H](C)O)[C@@H](C)O)C(=O)NC(Cc2ccc(-c3ccccc3C(F)(F)F)cc2)C(N)=O)cc1 (single isomer, unassigned) [compound 8] | 100% |
| CCc1cc(OC)ccc1-c1ccc(CC(NC(=O)[C@H](CC(=O)O)NC(=O)[C@H](CO)NC(=O)[C@@H](NC(=O)[C@H](Cc2ccccc2)NC(=O)[C@@H](NC(=O)CNC(=O)[C@H](CCC(N)=O)NC(=O)C2(NC(=O)[C@@H](N)Cc3c[nH]cn3)CC2)[C@@H](C)O)[C@@H](C)O)C(=O)NC(Cc2ccc(-c3ccccc3C)nc2)C(N)=O)cc1 (single isomer, unassigned) [compound 18] | 81% |

----------
Experiment: Stability in human plasma
Type: in vitro ADME
Conditions: human, plasma; 2 μM, 37° C.; read-out: half-life (t1/2) in human plasma
Recorded half-life for the following compounds
readout-name: half-life

| compound | measured-value |
| --- | --- |
| CCc1cc(OC)ccc1-c1ccc(CC(NC(=O)[C@H](CC(=O)O)NC(=O)[C@H](CO)NC(=O)[C@@H](NC(=O)C(C)(Cc2ccccc2F)NC(=O)[C@@H](NC(=O)CNC(=O)[C@H](CCC(N)=O)NC(=O)C2(NC(=O)[C@@H](N)Cc3c[nH]cn3)CC2)[C@@H](C)O)[C@@H](C)O)C(=O)NC(Cc2ccc(-c3ccccc3C)nc2)C(N)=O)cc1 (single isomer, unassigned) | > 24 h |
| CCc1cc(OC)ccc1-c1ccc(CC(NC(=O)[C@H](CC(=O)O)NC(=O)[C@H](CO)NC(=O)[C@@H](NC(=O)C(C)(Cc2ccccc2F)NC(=O)[C@@H](NC(=O)CNC(=O)[C@H](CCC(N)=O)NC(=O)C(C)(C)NC(=O)[C@@H](N)Cc2c[nH]cn2)[C@@H](C)O)[C@@H](C)O)C(=O)NC(Cc2ccc(-c3ccccc3C(F)(F)F)cc2)C(N)=O)cc1 (single isomer, unassigned) | > 24 h |

----------
# key: entry, value: % degradation in 24 h when incubated with human plasma
Assay: Stability in human plasma
Format: in vitro ADME
Settings: 2 μM, 37° C., 24 h
readout-name: % degradation in 24 h when incubated with human plasma (%)

| compound | quantity-unit | measured-value |
| --- | --- | --- |
| CCc1cc(OC)ccc1-c1ccc(CC(NC(=O)[C@H](CC(=O)O)NC(=O)[C@H](CO)NC(=O)[C@@H](NC(=O)C(C)(Cc2ccccc2F)NC(=O)[C@@H](NC(=O)CNC(=O)[C@H](CCC(N)=O)NC(=O)[C@H](CO)NC(=O)[C@@H](N)Cc2c[nH]cn2)[C@@H](C)O)[C@@H](C)O)C(=O)NC(Cc2ccc(-c3ccccc3C)nc2)C(N)=O)cc1 (single isomer, unassigned) | % | 77 |
| CCc1cc(OC)ccc1-c1ccc(CC(NC(=O)[C@H](CC(=O)O)NC(=O)[C@H](CO)NC(=O)[C@@H](NC(=O)C(C)(Cc2ccccc2F)NC(=O)[C@@H](NC(=O)CNC(=O)[C@H](CCC(N)=O)NC(=O)C(C)(C)NC(=O)[C@@H](N)Cc2c[nH]cn2)[C@@H](C)O)[C@@H](C)O)C(=O)NC(Cc2ccc(-c3ccccc3F)cc2)C(N)=O)cc1 (single isomer, unassigned) | % | 00 |
| CCc1cc(OC)ccc1-c1ccc(CC(NC(=O)[C@H](CC(=O)O)NC(=O)[C@H](CO)NC(=O)[C@@H](NC(=O)C(C)(Cc2ccccc2F)NC(=O)[C@@H](NC(=O)CNC(=O)[C@H](CCC(N)=O)NC(=O)[C@H](C)NC(=O)[C@@H](N)Cc2c[nH]cn2)[C@@H](C)O)[C@@H](C)O)C(=O)NC(Cc2ccc(-c3ccccc3C(F)(F)F)cc2)C(N)=O)cc1 (single isomer, unassigned) | % | 70 |
| CCc1cc(OC)ccc1-c1ccc(CC(NC(=O)[C@H](CC(=O)O)NC(=O)[C@H](CO)NC(=O)[C@@H](NC(=O)[C@H](Cc2ccccc2)NC(=O)[C@@H](NC(=O)CNC(=O)[C@H](CCC(N)=O)NC(=O)C2(NC(=O)[C@@H](N)Cc3c[nH]cn3)CC2)[C@@H](C)O)[C@@H](C)O)C(=O)NC(Cc2ccc(-c3ccccc3C)cc2)C(N)=O)cc1 (single isomer, unassigned) | % | 00 |
| CCc1cc(OC)ccc1-c1ccc(CC(NC(=O)[C@H](CC(=O)O)NC(=O)[C@H](CO)NC(=O)[C@@H](NC(=O)[C@H](Cc2ccccc2)NC(=O)[C@@H](NC(=O)CNC(=O)[C@H](CCC(N)=O)NC(=O)C(C)(C)NC(=O)[C@@H](N)Cc2c[nH]cn2)[C@@H](C)O)[C@@H](C)O)C(=O)NC(Cc2ccc(-c3ccccc3F)cc2)C(N)=O)cc1 (single isomer, unassigned) | % | 00 |
| CCc1cc(OC)ccc1-c1ccc(CC(NC(=O)[C@H](CC(=O)O)NC(=O)[C@H](CO)NC(=O)[C@@H](NC(=O)[C@H](Cc2ccccc2)NC(=O)[C@@H](NC(=O)CNC(=O)[C@H](CCC(N)=O)NC(=O)[C@H](C)NC(=O)[C@@H](N)Cc2c[nH]cn2)[C@@H](C)O)[C@@H](C)O)C(=O)NC(Cc2ccc(-c3ccccc3C)cc2)C(N)=O)cc1 (single isomer, unassigned) | % | 75 |
